The values you see were collected from PubChem BioAssay (NCI).

System: SF-295 CNS
Assay: NCI tumour cell line growth inhibition, 48 h
readout: TGI

1) CN1CCN(CCCOc2cc(O)c3c(=O)cc(-c4ccccc4)oc3c2)CC1 | 44.5 µM
2) CN(C)CCCNC(=O)N/N=C/c1ccccc1 | > 100 µM
3) CC(=O)[CH-]C(=O)c1ccccc1.CC(=O)[CH-]C(=O)c1ccccc1.[O-]c1ccc2c(c1)OCO2.[O-]c1ccc2c(c1)OCO2.[Ti+4] | > 100 µM
4) CC(C)(C)OC(=O)N[C@@H](Cc1ccccc1)C(=O)N(Cc1ccccc1)C1(C(=O)NCc2ccccc2)CCN(Cc2ccccc2)CC1 | > 100 µM
5) O=C1CSC(c2c[nH]c3ccccc23)N1c1ccc(Cl)cc1Cl (stereo not given) | > 100 µM
6) Cn1c(=O)cc(NNc2ccc(Cl)c(Cl)c2)[nH]c1=O | 43.2 µM
7) CCOC(=O)N1CCN(c2c(N)nc(C)[nH]c2=O)CC1 | > 100 µM
8) CCn1c(-c2nonc2N)nc2c(N3CCCC3)nccc21 | > 25 µM
9) COc1cc(NCCCCCN=C(N)NC(N)=NC(C)C)c2ncccc2c1 | 29.2 µM
10) O/N=C/c1ccc(O)c(O)c1 | > 100 µM
11) CCCCNC(=O)Cn1c2ccc(Br)cc2c2nc3ccccc3nc21 | > 100 µM
12) c1ccc2c(c1)cc1ccc3cccc4ccc2c1c34 | > 100 µM
13) CC(SCc1ccccc1)C(=O)O (stereo not given) | > 100 µM
14) CC[C@H](NC(=O)OC(C)(C)C)C(=O)NCP(=O)(OCc1ccc([N+](=O)[O-])cc1)OCc1ccc([N+](=O)[O-])cc1 | 55.7 µM
15) O=P(O)(O)OCC1OC(n2cnc3c(NCc4ccccc4)ncnc32)C(O)C1O (stereo not given) | 21.8 µM
16) COc1ccc2c(c1)CN1CCc3c(cc(OC)c(OC)c3OC)C1C2 (stereo not given) | > 100 µM
17) CC[C@]12C=CCN3CCC4(c5cc([C@@]6(C(=O)OC)CC7CN(CCc8c6[nH]c6ccccc86)CC6CCCCC67)c(OC)cc5N(C)C4[C@](O)(C(=O)OC)C1OC(C)=O)[C@@H]32 (stereo not given in full) | 15.1 µM
18) CSc1nc(Cl)c2c(n1)Sc1nc3ccccc3n1C2O (stereo not given) | > 100 µM
19) Cc1cc(-c2ccccc2)nc2oc(=O)n(C)c12 | > 100 µM
20) COc1cc2c(cc1OCc1ccccc1)NC(=O)[C@@H]1CCCN1C2=O | > 100 µM
21) CCOC(=O)c1csc(NC(=O)CCN2CCN(C)CC2)n1 | > 100 µM
22) N#Cc1cccc(N2C(=O)C3C4C=CC(C3C2=O)C2C(=O)N(c3cccc(C#N)c3)C(=O)C42)c1 (stereo not given) | 36.7 µM
23) CCC1(CC)C(=O)N(C(=O)c2cc(OC)c(OC)c(OC)c2)N(C(=O)c2cc(OC)c(OC)c(OC)c2)C1=O | > 50 µM
24) NC(Cc1ccccc1)c1nccs1 (stereo not given) | > 100 µM
25) Cc1cc(S(=O)(=O)N=C2Nc3cccc4cccc(c34)N2)c(S)cc1Cl | > 100 µM
26) COc1cc2cnc3c4cc(OCc5ccccc5)ccc4ccc3c2cc1OC | 82.9 µM
27) COc1ccc(C2c3cc4c(cc3OC(Nc3ccccc3)C2C)OCO4)cc1 (stereo not given) | > 100 µM
28) COc1cc(C(=O)c2cocc2C(=O)c2ccc3c(c2)OCO3)cc(OC)c1OC | 2.48 µM
29) COc1cc2c(c(OC)c1)[C@H](C)N(Cc1ccccc1)C(C)C2 (stereo not given in full) | > 100 µM
30) O=C([O-])CC(=O)[O-].[NH-][C@@H]1CCCC[C@H]1[NH-].[Pt+4] | > 100 µM
31) C[CH2][Sn]([CH2]C)([O]C(=O)c1ccc(F)cc1)[O]C(=O)c1ccc(F)cc1 | > 65.7 µM
32) COc1ccc2[nH]c(C(=O)OCc3ccc4c(Cl)cc(Cl)c(O)c4n3)cc2c1 | 18 µM
33) CN1c2ccccc2C2=C(c3ccccc3)CC[C@@H](C(=O)N3C4CC5CC[C@@]4(CS3(=O)=O)C5(C)C)[C@@H]21 (stereo not given in full) | > 100 µM
34) COc1c(N2CCN(CN3C(=O)C(=Nc4ccc(S(=O)(=O)Nc5ncccn5)cc4)c4cc(Cl)ccc43)C(C)C2)c(F)cc2c(=O)c(C(=O)O)cn(C3CC3)c12 (stereo not given) | > 50 µM
35) CCn1c2ccccc2c2cc(C(=O)c3ccc(C)c4ccccc34)ccc21 | 0.936 µM
36) CC1(C)C=C(/C=C2/N(S(=O)(=O)C(F)(F)F)C(/C=C3/N(S(=O)(=O)C(F)(F)F)C(C)(C#N)CC3(C)C)=CC2(C)C)N=C1/C=C1/CC(C)(C)C(=O)N1 (stereo not given) | > 100 µM
37) N#CC1=C(N)NC(=O)NC12Nc1ccccc1N2 | > 100 µM
38) CCN(Cc1c(F)cccc1Cl)c1ccc(CO)c(Cl)c1 | 15.7 µM
39) CC1=NN2C(=N)/C(=C/c3ccc(F)cc3)C(=O)N=C2S1 | > 100 µM
40) CC(=O)NN1C(=O)C(Cc2ccccc2)c2ccccc21 (stereo not given) | > 100 µM
